- Test system: SNB -19
// classify: if (GI50 < 400 nM) 1.0 else 0.0

Compound: COc1ccc(S(=O)(=O)Nc2c(/C=C\c3cc(OC)c(OC)c(OC)c3)ccc(OC)c2O)cc1 [17a]
Classification: 1.0
--
Compound: COc1ccc(S(=O)(=O)Nc2cc(/C=C\c3cc(OC)c(OC)c(OC)c3)cc(OC)c2OC)cc1 [13a]
Classification: 1.0
--
Compound: COc1ccc(/C=C\c2cc(OC)c(OC)c(OC)c2)c(NS(=O)(=O)c2ccc(Cl)cc2)c1O [17c]
Classification: 0.0
--
Compound: COc1cc(/C=C\c2cc(OC)c(OC)c(OC)c2)cc(NS(=O)(=O)c2ccc(Cl)cc2)c1OC [13c]
Classification: 0.0
--
Compound: COc1ccc(S(=O)(=O)Nc2cc(/C=C\c3cc(OC)c(OC)c(OC)c3)ccc2OC)cc1 [12a]
Classification: 1.0
